# test target: T1, human MSLN-R3 on HEK293T-hMSLN-R3 recombinant cells (human, UniProt Q13421 487-606)
# T1 construct: the C-terminal limit is uncertain; also called human MSLN-R3 membrane protein
# T1 sequence (Q13421 495-614): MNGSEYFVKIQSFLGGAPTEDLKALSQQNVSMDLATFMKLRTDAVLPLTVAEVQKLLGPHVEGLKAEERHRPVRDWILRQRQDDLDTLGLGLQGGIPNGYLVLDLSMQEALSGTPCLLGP
# assay method text: FACS, HEK293T-hMSLN-R3 cells
Reported Maximum_MFI values are given for each entry in this list.
observation type: Maximum_MFI (MFI)

{"binder": "F2.23.12-H4 (scFv, not shown: small tags and cut ends, also called S009-F2.23.12 humanized antibody VH1 + VL4) scFv: EVQLVQSGAEVKKPGASVKVSCKASGYTFTNYWMHWVRQAPGQGLEWMGNINPSNGGPYYNERFRSRVTMTVDKSTSTVYMELSSLRSEDTAVYYCARPYYGSSYGYFDYWGQGTTVTVSSGGGGSGGGGSGGGGSDIQMTQSPSSLSASVGDRVTITCKASQDINKYIAWYQHKPGKAPKLLIHYTSELQPGVPSRFSGSGSGRDYTFTISSLQPEDIATYYCLQYANPLRTFGGGTKVEIK", "readout number": 4760}
{"binder": "F2.39.3-H5 (scFv, not shown: small tags and cut ends, also called S009-F2.39.3 humanized antibody VH2 + VL1) scFv: EVQLVQSGAEVKKPGASVKVSCKASGYTFTNYWMHWVRQAPGQGLEWMGNINPSSGDSYYNERFMSRVTMTVDKSTSTAYMELSSLRSEDTAVYYCARSGGLWLAFWGQGTLVTVSSGGGGSGGGGSGGGGSDIVMTQSPDSLAVSLGERATINCKSSQTLLNSVSQNNYLAWYQQKPGQSPKLLIYFASTRESGVPDRFSGSGSGTDFTLTISSLQAEDVAVYYCQQHYRTPYTFGGGTKVEIK", "readout number": 5650}
{"binder": "F2.23.12-H5 (scFv, not shown: small tags and cut ends, also called S009-F2.23.12 humanized antibody VH2 + VL1) scFv: EVQLVQSGAEVKKPGASVKVSCKASGYTFTNYWMHWVRQAPGQGLEWMGNINPSNGGPYYNERFRSRVTMTVDKSTSTAYMELSSLRSEDTAVYYCARPYYGSSYGYFDYWGQGTTVTVSSGGGGSGGGGSGGGGSDIQMTQSPSSLSASVGDRVTITCKASQDINKYIAWYQQKPGKAPKLLIHYTSELQPGVPSRFSGSGSGTDFTFTISSLQPEDIATYYCLQYANPLRTFGGGTKVEIK", "readout number": 4730}
{"binder": "F2.39.3-H2 (scFv, not shown: small tags and cut ends, also called S009-F2.39.3 humanized antibody VH1 + VL2) scFv: EVQLVQSGAEVKKPGASVKVSCKASGYTFTNYWMHWVRQAPGQGLEWMGNINPSSGDSYYNERFMSRVTMTVDKSTSTVYMELSSLRSEDTAVYYCARSGGLWLAFWGQGTLVTVSSGGGGSGGGGSGGGGSDIVMTQSPDSLAVSLGERATINCKSSQTLLNSVSQNNYLAWYQQKPGQSPTLLIYFASTRESGVPDRFSGSGSGTDFTLTISSLQAEDVAVYYCQQHYRTPYTFGGGTKVEIK", "readout number": 5970}
{"binder": "F2.23.12-H1 (scFv, not shown: small tags and cut ends, also called S009-F2.23.12 humanized antibody VH1 + VL1) scFv: EVQLVQSGAEVKKPGASVKVSCKASGYTFTNYWMHWVRQAPGQGLEWMGNINPSNGGPYYNERFRSRVTMTVDKSTSTVYMELSSLRSEDTAVYYCARPYYGSSYGYFDYWGQGTTVTVSSGGGGSGGGGSGGGGSDIQMTQSPSSLSASVGDRVTITCKASQDINKYIAWYQQKPGKAPKLLIHYTSELQPGVPSRFSGSGSGTDFTFTISSLQPEDIATYYCLQYANPLRTFGGGTKVEIK", "readout number": 4720}

The measured values listed here are drawn from patent US20250250357A1.
